# Test system: full-length RRE–Rev complex
# test: EMSA of full-length RRE–Rev complex formation inhibition
# Type: biochemical, HIV-1
# recorded.conditions: low-order RRE–Rev complex EMSA bands; 70 nM RRE, 0.75 µM Rev; 95% CI and R2 in parentheses
pIC50: −log10 of the molar value.
Parameter pIC50: see the listing below.

Enquiry: For full-length RRE–Rev complex, give pIC50 of the listed compound: CN(C)CCOc1ccc2c(c1)C(=O)c1ccccc1-2
Return: < 4.30

Enquiry: For full-length RRE–Rev complex, give pIC50 of the listed compound: CN(C)CCOc1cc2c(c3ccccc13)-c1ccccc1C2=O
Return: 5.30

Enquiry: For full-length RRE–Rev complex, give pIC50 of the listed compound: CN(C)CCOc1ccc(-c2ccccc2)c2ccccc12
Return: < 4.30

Enquiry: For full-length RRE–Rev complex, give pIC50 of the listed compound: CN(C)CCOc1ccc2c(c1)Cc1ccccc1-2
Return: < 4.30

New cases:
Enquiry: For full-length RRE–Rev complex, give pIC50 of the listed compound: CN(C)CCOc1cccc(C(=O)c2ccccc2)c1
Return: < 4.30
